# System: MCP-1
# assay notes: In vivo tolerability by IM: serum MCP-1 by Luminex
# stated conditions: IM 1.0 mg/kg, 24 h, male C57BL/6J mice N=3, Formulation 001, RNA 331
# Protocol: 6-8 week old, male C57BL/6J mice (N=3) were injected with 1.0 mg*kg−1 of RNA-LNPs encoding for firefly-luciferase by intramuscular injection. At 2- and 24-hours post injection, about 40 μL blood was harvested and immediately added to the procoagulant containing tube. Stand for 30 min at room temperature and then centrifuged at 2500 g×10 min to obtain serum. About 15 μL serum samples were aliquoted for cytokine (MCP-1 and IL-6) detection by Luminex (ProcartaPlex Mouse 2-plex, Thermo). […]
Item-by-item account of MCP-1 at 24 h
Write the answer as a number in pg/mL, unit excluded.

Please review the following examples before continuing.
{"compound": "CCCCCCCC/C=C\\CCCCCCCC(=O)NC(COC(=O)NCCN1CCCCCC1)C(=O)OCCCCCCCCOC(=O)C(CCCCCC)CCCCCCCC (stereo not shown)", "MCP-1 at 24 h / pg/mL": 4620}
{"compound": "CCCCCCCC/C=C\\CCCCCCCC(=O)NC(COC(=O)NCCN1CCCCC1)C(=O)OCCCCCCCCOC(=O)C(CCCCCC)CCCCCCCC (stereo not shown)", "MCP-1 at 24 h / pg/mL": 3270}
{"compound": "CCCCC/C=C\\C/C=C\\CCCCCCCC(=O)NC(COC(=O)NCCN1CCCCC1)C(=O)OCCCCCCCC(=O)OC(CCCCCCCC)CCCCCCCC (stereo not shown)", "MCP-1 at 24 h / pg/mL": 3980}

Consider the record given below.
What MCP-1 at 24 h appears in the records for this compound with MCP-1? CCCCC/C=C\C/C=C\CCCCCCCC(=O)NC(COC(=O)NCCN1CCCCC1)C(=O)OCCCCCC(=O)OCC(CCCCCCCC)CCCCCCCCCC (stereo not shown)
3740
